Could you please report measured Organ distribution of F-18 signal, femur for the items listed next?
Test: Biodistribution: organ distribution of F-18 signal in mice
Type: in vivo, male NMRI mice
Conditions: femur, 2 min post i.v. injection
One number for each entry, in % ID/g.

- MOLECULE: "O=C(NCC(=O)N1CCN(c2ccc(OCc3ccccc3)cn2)CC1)c1ccnc([18F])c1 [Example 14f]"
  Organ distribution of F-18 signal, femur, % ID/g: 1.44

For every record below, what is its Organ distribution of F-18 signal, femur?
1. O=C(NCC(=O)N1CCN(c2ccc(OCc3ccccc3)cc2)CC1)c1ccnc([18F])c1 [Example 11c]
2. O=C(NCC(=O)N1CCN(c2ccc(OCc3ccccc3)cc2)CC1)c1cccc(OCC[18F])c1 [Example 3g]
3. O=C(NCC(=O)N1CCN(c2ccc(OCc3ccccc3)cc2)CC1)c1cccnc1[18F] [Example 12c]
4. O=C(NCC(=O)N1CCN(c2ccc(OCc3ccccc3)cc2)CC1)c1ccc([18F])nc1 [Example 10e]

Result:
[1.53, 1.95, 1.70, 1.44]

----------
Could you please report measured Organ distribution of F-18 signal, intestine for the items listed next?
Test: Biodistribution: organ distribution of F-18 signal in mice
Format: in vivo, male NMRI mice
Details: intestine (with content), 60 min post i.v. injection
Numbers only, in % ID/g.

Recorded results for 3 molecules are shown here.
- MOLECULE: "O=C(NCC(=O)N1CCN(c2ccc(OCc3ccccc3)cn2)CC1)c1ccnc([18F])c1 [Example 14f]"
  EXPERIMENTAL VALUE: 13.11
- MOLECULE: "O=C(NCC(=O)N1CCN(c2ccc(OCc3ccccc3)cc2)CC1)c1ccc([18F])nc1 [Example 10e]"
  EXPERIMENTAL VALUE: 10.63
- MOLECULE: "O=C(NCC(=O)N1CCN(c2ccc(OCc3ccccc3)cc2)CC1)c1cccc(OCC[18F])c1 [Example 3g]"
  EXPERIMENTAL VALUE: 6.47

For every record below, what is its Organ distribution of F-18 signal, intestine?
1. O=C(NCC(=O)N1CCN(c2ccc(OCc3ccccc3)cc2)CC1)c1cccnc1[18F] [Example 12c]
2. O=C(NCC(=O)N1CCN(c2ccc(OCc3ccccc3)cc2)CC1)c1ccnc([18F])c1 [Example 11c]

Result:
[8.88, 14.79]

----------
Assay: Biodistribution: organ distribution of F-18 signal in mice
Assay type: in vivo, male NMRI mice
Settings: femur, 240 min post i.v. injection
MEASURED PARAMETER: Organ distribution of F-18 signal, femur
Dear colleague, please send the value followed by its unit.

- MOLECULE: "O=C(NCC(=O)N1CCN(c2ccc(OCc3ccccc3)cc2)CC1)c1cccc(OCC[18F])c1 [Example 3g]"
  EXPERIMENTAL VALUE: "3.06 % ID/g"

For every record below, what is its Organ distribution of F-18 signal, femur?
1. O=C(NCC(=O)N1CCN(c2ccc(OCc3ccccc3)cn2)CC1)c1ccnc([18F])c1 [Example 14f]
2. O=C(NCC(=O)N1CCN(c2ccc(OCc3ccccc3)cc2)CC1)c1ccnc([18F])c1 [Example 11c]
3. O=C(NCC(=O)N1CCN(c2ccc(OCc3ccccc3)cc2)CC1)c1ccc([18F])nc1 [Example 10e]
4. O=C(NCC(=O)N1CCN(c2ccc(OCc3ccccc3)cc2)CC1)c1cccnc1[18F] [Example 12c]

Result:
1: 0.13 % ID/g; 2: 0.16 % ID/g; 3: 1.75 % ID/g; 4: 7.96 % ID/g
